- EXPERIMENT: Compound was evaluated for its half life at 25 degree Centigrade
READOUT KIND: half-life (min)

COc1cccc2c1C(=O)c1c(O)c3c(c(O)c1C2=O)C[C@@](O)(C(=O)CO)C[C@@H]3O[C@@H]1C[C@@H](N)[C@H](O)[C@@H](C)O1 :: 35

----------
- EXPERIMENT: Compound was evaluated for its half life at 37 degree Centigrade.
READOUT KIND: half-life (min)

COc1cccc2c1C(=O)c1c(O)c3c(c(O)c1C2=O)C[C@@](O)(C(=O)CO)C[C@@H]3O[C@@H]1C[C@@H](N)[C@H](O)[C@@H](C)O1 :: 15
